Where do these numbers come from? They come from patent US9546168B2.

pIC50: −log10 of the molar value.
The following molecules have recorded pIC50 on phosphorylated active hERK2 enzyme (Homo sapiens (Human), UniProt P28482).
Sequence (P28482 whole entry): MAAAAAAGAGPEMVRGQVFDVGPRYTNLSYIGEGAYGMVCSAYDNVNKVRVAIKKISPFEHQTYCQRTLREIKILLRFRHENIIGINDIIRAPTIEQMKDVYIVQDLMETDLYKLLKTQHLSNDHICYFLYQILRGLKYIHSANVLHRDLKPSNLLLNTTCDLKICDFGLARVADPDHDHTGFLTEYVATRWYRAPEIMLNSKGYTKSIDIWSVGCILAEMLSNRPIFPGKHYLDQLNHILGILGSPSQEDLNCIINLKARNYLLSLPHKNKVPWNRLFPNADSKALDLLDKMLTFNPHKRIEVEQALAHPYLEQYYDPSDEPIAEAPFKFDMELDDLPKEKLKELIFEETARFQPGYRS
property.name: pIC50

Look over these answered cases.
# given.smiles, pIC50
records = [
    ("C[C@@H](NC(=O)Nc1cc2[nH]nc(C3CC3)c2c(CO)n1)c1ccccc1", 9.14),
    ("CC(F)(F)c1n[nH]c2cc(NC(=O)N[C@@H](c3ccccc3)C(C)(C)O)nc(CO)c12", 7.85),
    ("C[C@@H](O)[C@@H](NC(=O)Nc1cc2[nH]nc(C3CC3)c2c(CO)n1)c1ccccc1", 9.12),
    ("COCc1nc(NC(=O)N[C@H](C)c2ccccc2)cc2[nH]nc(-c3ccnc(C)c3)c12", 8.95),
    ("C[C@@H](NC(=O)Nc1cc2[nH]nc(-c3ccnc(F)c3)c2c(CO)n1)c1ccccc1", 9.04),
]

(P) CC(=O)c1n[nH]c2cc(NC(=O)N[C@H](C)c3ccccc3)nc(CO)c12
(Q) CC(C)(O)[C@@H](NC(=O)Nc1cc2[nH]nc(C(F)F)c2c(CO)n1)c1ccccc1
(R) CC(C)(O)[C@@H](NC(=O)Nc1cc2[nH]nc(C3CC3)c2c(CO)n1)c1ccccc1
(S) CC(C)(O)[C@@H](NC(=O)Nc1cc2[nH]nc(-c3ccccc3)c2c(CO)n1)c1ccccc1
Asked: Rank entries according to their pIC50, from the largest number down. // rank by listing labels in the order requested
Given back: S, Q, R, P
(S: 9.43, Q: 9.12, R: 8.36, P: 7.90)
